# Test system: Saccharomyces cerevisiae
# Measurement notes: protein stability index of tFT-peptide fusion (C-terminal peptide) (PSI (0-1 scale)); higher = more stable (slower turnover);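 note: PSI is a weighted mean of sequencing reads over stability bins, variants kept only with over 10 reads, mCherry proximal and sfGFP distal, peptide attached via GGGS linker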
# Settings: genetic background: wild type; temperature: 30 C
Condition met means recorded protein stability index is 0.7 or above; Condition not met means it is below 0.7.

Example cases with answers are listed next.
{"columns": ["Monomer sequence", "Class label"],
 "data": [
  ["DSFDLPCLFKVP", "Condition not met"],
  ["ASRPAPPAPAFL", "Condition not met"],
  ["TARDLEGTRAKG", "Condition not met"],
  ["HYPLPPLLPPAP", "Condition not met"]
]}

We now examine a further sequence.
Problem: Say whether FVVQSLNQMRLN shows protein stability index of 0.7 or more.
Solution: Condition not met

====

# Test system: Saccharomyces cerevisiae
# Measurement notes: protein stability index of tFT-peptide fusion (C-terminal peptide) (PSI (0-1 scale)); higher = more stable (slower turnover)
# Settings: genetic background: wild type; temperature: 30 C
protein stability index overview
Please give the numeric answer without any surrounding text.

{"columns": ["Monomer sequence", "Property label", "Observed result"],
 "data": [
  ["DSVRGNDSGSGL", "protein stability index", 0.725],
  ["WFQSSLVCDTWL", "protein stability index", 0.681],
  ["ALGPPAPGPCRA", "protein stability index", 0.654],
  ["RGVTEYDSGSSL", "protein stability index", 0.647],
  ["KKEKVKKKKGNN", "protein stability index", 0.723]
]}

Problem: Returns the measured protein stability index for the input sequence. Input: PRSSPEPTCQDP
Solution: 0.647

Problem: Record: VALFIRITKHEY
Solution: 0.549

Problem: Ok, now QFTLLEFVRSMG
Solution: 0.613

Problem: Next record, please: YRARTADRPRDQ
Solution: 0.729

Problem: Same read-out for APLPPPRPPPSP ?
Solution: 0.657

Problem: Proceed to FQWILYIAKRVV
Solution: 0.338

====

# Tested on: Saccharomyces cerevisiae
# Measurement notes: protein stability index of tFT-peptide fusion (C-terminal peptide) (PSI (0-1 scale)); higher = more stable (slower turnover)
# Settings: genetic background: wild type; temperature: 30 C
Property label: protein stability index
No unit in the answer, please; the number alone is enough.

{"columns": ["Monomer sequence", "protein stability index"],
 "data": [
  ["EIGGYHLGWAKC", 0.636],
  ["EGIVRYRKRGSR", 0.665]
]}

Problem: For the sequence shown here, VFCPGWRKCNDP , give the reported protein stability index.
Solution: 0.661

Problem: Again, but for WAASGGAARYAP
Solution: 0.684

Problem: Now this one: ALSDPDTVRLYA
Solution: 0.711

Problem: // repeat for SSKGGWSGGGSV and report
Solution: 0.71

====

# Test system: Saccharomyces cerevisiae
# Measurement notes: protein stability index of tFT-peptide fusion (C-terminal peptide) (PSI (0-1 scale)); higher = more stable (slower turnover)
# Settings: genetic background: cdc34-1; temperature: 37 C
// reported protein stability index per item

{"columns": ["Monomer sequence", "Observed result"],
 "data": [
  ["VFFVTSCWVFRG", 0.416],
  ["FRTTGQAPPSKP", 0.674],
  ["DHSWGGLLICTC", 0.476],
  ["GVAVVWVGLGVT", 0.325],
  ["FVVQSLNQMRLN", 0.693]
]}

Problem: What value of measured protein stability index is listed for SCLVLDYCFSLV ?
Solution: 0.649

Problem: Would you mind doing RNKIWCTVIMRL as well?
Solution: 0.51

Problem: Entry GLWLRVCIVAWV please
Solution: 0.0407

Problem: Entry to check: VYFRMGFMRVCV
Solution: 0.487

Problem: Input GFPFLFILYFLC
Solution: 0.161
